test: NCI Yeast Anticancer Drug Screen. Data for the sgs1 mgt1 strain (AID 161); details: S. cerevisiae sgs1 mgt1 strain, at 50.0 µM, stronger effect = higher value
The panel holds about 79,000 compounds, 15% with a hit somewhere; the sample as a whole holds those more often.
Threshold rule: growth inhibition greater than or equal to 90% is True; below that, False.

compound	class-assignment
Clc1nn2nnnc2c2ccccc12	False
O=C(c1ccccc1)c1cccc2ccccc12	False
CCC12C=CCN3CCC4(c5cc(C(c6ccccn6)c6cc7ccccc7n6C)c(OC)cc5N(C)C4C(O)(C(=O)OC)C1OC(C)=O)C32 (stereo not drawn)	False
CNCCCNc1c2cc(OC)ccc2nc2cccc([N+](=O)[O-])c12	False
C#CC(CC)(CC)NC(=O)NC(C)(C)C	False
CC#CC#C/C=C1/C=CC(=O)O1	False
CC(=O)Oc1ccc2cc(-c3ccccc3OC(C)=O)c(=O)oc2c1	False
CCCCCCCCCCCCO	False
O=C(O)C(c1ccccc1)c1ccc(-c2ccccc2)cc1 (stereo not drawn)	True
COc1ccc(C(=O)C2Cc3c(ccc4ccccc34)OC2=O)cc1 (stereo not drawn)	False
COC(O)C(=O)c1ccc2c(c1)CC1(C2)Cc2cc3c(cc2C1=O)CCC3 (stereo not drawn)	False
CCOC(=O)N1C2C=CC(=O)C(C=C2)N1C(=O)OCC (stereo not drawn)	False
COC(=O)n1c(C[P+](c2ccccc2)(c2ccccc2)c2ccccc2)cc2ccccc21	True
Cc1ccc(-c2ccccc2)n1-c1cc(Cl)ccc1O	True
CC(C)c1ncc(-c2ccccc2)cc1-c1ccccc1	True

Attribution: PubChem BioAssay (NCI)
